TEST TARGET: PPARG (peroxisome proliferator activated receptor-gamma), GST-PPARG-LBD (Homo sapiens, UniProt P37231)
Construct: 15 μL of 5 nM GST-PPARG-LBD and 5 nM Tb-GST-antibody were added; purchased Invitrogen PV4894
Sequence (P37231 238-503 limits assumed): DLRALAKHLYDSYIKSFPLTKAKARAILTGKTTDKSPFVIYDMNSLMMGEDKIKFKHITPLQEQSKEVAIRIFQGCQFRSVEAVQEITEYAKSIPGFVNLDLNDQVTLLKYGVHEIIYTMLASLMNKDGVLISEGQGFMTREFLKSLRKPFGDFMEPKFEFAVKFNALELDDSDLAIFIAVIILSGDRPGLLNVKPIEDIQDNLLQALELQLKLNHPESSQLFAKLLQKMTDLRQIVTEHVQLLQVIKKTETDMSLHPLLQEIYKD
METHOD SUMMARY: LanthaScreen TR-FRET PPARG Competitive Binding Assay
Set-up: key: “+” indicates the degree of the binding activity, and as the number of “+” increases, the binding activity is stronger; ++: “+” indicates the degree of the binding activity, and as the number of “+” increases, the binding activity is stronger; +++: “+” indicates the degree of the binding activity, and as the number of “+” increases, the binding activity is stronger; ++++: “+” indicates the degree of the binding activity, and as the number of “+” increases, the binding activity is stronger
CONDITION: degree of binding activity

| CHEMICAL STRUCTURE | Binding assay (1 μLM) |
| --- | --- |
| C[C@H](NC(=O)c1ccc2c(c1)CCCN2Cc1ccc(-c2ccccc2C(N)=O)cc1)c1ccccc1C(F)(F)F | ++ |
| O=C(NCc1ccc(Br)cc1)c1ccc2c(c1)CCCN2Cc1ccc(-c2ccccc2C(=O)O)cc1 | ++++ |
| C[C@H](NC(=O)c1ccc2c(c1)CCCN2Cc1ccc(-c2ccccc2C(=O)O)cc1)c1ccccc1C(F)(F)F | +++ |
| O=C(NCc1ccc2c(c1)OCCO2)c1ccc2c(c1)CCCN2Cc1ccc(-c2ccccc2C(=O)O)cc1 | +++ |
